- assayed target: Kras and SOS1 (biotin-tagged human Kras loaded with GDP, His-tagged human SOS1) (Homo sapiens, UniProt P01116, G12D)
- Construct: made in house; host or cells: E. coli (stated for Kras only)
- Sequence (P01116 1-188 isoform P01116-2 G12D): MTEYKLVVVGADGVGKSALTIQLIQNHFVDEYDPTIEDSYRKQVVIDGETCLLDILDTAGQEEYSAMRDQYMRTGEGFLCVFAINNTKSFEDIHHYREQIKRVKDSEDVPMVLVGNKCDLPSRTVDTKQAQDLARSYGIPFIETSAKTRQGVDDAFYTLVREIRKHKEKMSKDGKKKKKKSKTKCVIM
- test protocol: Protein-protein interaction inhibition between Kras and SOS1 (KrasGl2D-SOS PPI) using AlphaScreen
- Format: binding
- settings: AlphaScreen; biotin-tagged human Kras loaded with GDP, His-tagged human SOS1; read-out: KRAS G12D-SOS PPI IC50
Positions of bridges follow the written chain, without caps; N, C: chain ends. Non-standard residues stand in square brackets, D forms with d. Residues, ends and D or L forms follow the SMILES beside them. hPhe(3-Cl-4-CF3) = N[C@@H](CCc1ccc(C(F)(F)F)c(Cl)c1)C(=O)O; NMeAla(4-thiazolyl) = CN[C@@H](Cc1cscn1)C(=O)O; NMePhe(4-Me) = CN[C@@H](Cc1ccc(C)cc1)C(=O)O; NMeI = CC[C@H](C)[C@H](NC)C(=O)O; NMeD = CN[C@@H](CC(=O)O)C(=O)O; NMeL = CN[C@@H](CC(C)C)C(=O)O; NMeA = CN[C@@H](C)C(=O)O; Aze = O=C(O)[C@@H]1CCN1; Sar = CNCC(=O)O
readout: IC50 (nM)
Answers are plain numbers, in nM.

Prompt: # input compound: CC[C@H](C)[C@@H]1NC(=O)[C@H](CC(C)C)N(C)C(=O)C[C@@H](C(=O)N(C)C)N(C)C(=O)[C@H]([C@@H](C)CC)N(C)C(=O)[C@H](C)NC(=O)[C@H](Cc2cscn2)N(C)C(=O)[C@H](CCc2ccc(C(F)(F)F)c(Cl)c2)NC(=O)CN(C)C(=O)[C@H](Cc2ccc(C)cc2)N(C)C(=O)[C@@H]2CCN2C(=O)[C@H](C)N(C)C1=O [Compound 856] ([NMeL]I[NMeA][Aze][NMePhe(4-Me)][Sar][hPhe(3-Cl-4-CF3)][NMeAla(4-thiazolyl)]A[NMeI][NMeD]-NMe2; lactam N-11) ; wanted: its IC50
Completion: 14
